test-summary: Pharmacokinetics after iv and oral administration, P‐S difference method, Mdr1a/1b(−/−) mice
Type: in vivo
test-context: male, Mdr1a/1b(−/−) (FVB background), mouse, systemic plasma (abdominal vein), po, 1 mg/kg
Procedure: Male Mdr1a/1b(−/−) and Bcrp(−/−) mice, and WT mice of the same genetic background (FVB) were obtained from Taconic Farms (Germantown, NY, USA). […] Food and water were available ad libitum. […] After organic layer was evaporated at 60°C, the resultant residues were dissolved in a mobile phase. […] All drugs were analyzed by HPLC system (Shimadzu LC‐10AS pump, Shimadzu SIL‐10A autosampler) equipped with a reverse‐phase column (COSMOSIL 5C18‐AR‐II, 3.5‐μm […], 4.6 × 150 mm). […]
Counter-ions that a name gives are not always drawn.
attribute-measured: Cmax (µM)
Report the figure in µM without appending any unit label.

Need Cmax of CC[C@@]1(O)C(=O)OCc2c1cc1n(c2=O)Cc2cc3c(CN(C)C)c(O)ccc3nc2-1 [topotecan, Topotecan HCl] , thanks.
0.242
